System: CCRF-CEM leukemia
experimentalDetails: NCI-60 one-dose screen, 48 h
assaySetup: 10 µM unless noted
Description: Growth inhibition of the CCRF-CEM human tumor cell line is measured as a screen for anti-cancer activity. Cells are grown in 96 well plates and exposed to the test compound for 48 hours. Compounds are tested at a single concentration, which is 10^-5 M for most compounds. The reported endpoint is percent growth (GI% or GIPRCNT), where numbers from 0 - 100% represent growth inhibition, and numbers from -100% - 0 represent cell death. For example, a value of 40 represents 60% growth inhibition. […]
The panel holds about 83,000 compounds, 20% with a hit somewhere; the sample as a whole holds those more often. Active and inactive are the calls of the source. The calls were made as follows: active = growth percent below 10; inactive = the rest.
Outcome codes: class 1 = active, class 0 = inactive

| compound | assaySystem | discreteLabel |
| --- | --- | --- |
| CNC(=O)c1cc(N2CCc3cc(NC(=O)Nc4ccc(Cl)c(Cl)c4)ccc32)ccn1 | CCRF-CEM leukemia | class 0 |
| COc1ccc(Cn2cc3c(c2-c2ccccc2)CCCc2cnoc2-3)cc1[N+](=O)[O-] | CCRF-CEM leukemia | class 0 |
| COc1cc(C(=O)C[n+]2ccc3ccccc3c2)cc(OC)c1OC | CCRF-CEM leukemia | class 0 |
| Cc1ccc(-c2csc(N/N=C/c3nc4ccccc4n3C3CC3)n2)cc1 | CCRF-CEM leukemia | class 1 |
| CCc1ccc(NC(=O)N[C@@H](Cc2cccc(F)c2)C(=O)N[C@@H]2C(=O)N3CCC[C@H]3C(=O)N3CCCC[C@H]3C(=O)N[C@@H](C)C(=O)N3C[C@H](C)C[C@H]3C(=O)O[C@H]2C)c(F)c1 | CCRF-CEM leukemia | class 0 |
| C#C[C@]1(O)CC[C@H]2[C@@H]3CC=C4c5sc(Nc6cccc(C)n6)nc5CC[C@]4(C)[C@H]3CC[C@@]21C | CCRF-CEM leukemia | class 1 |
| CCOC(=O)Nc1cccc(-n2cnc3cc(-c4ccc(O)cc4)ccc32)c1 | CCRF-CEM leukemia | class 0 |
| CCOC(=O)c1c(NCC(=O)Nc2cccc([N+](=O)[O-])c2)sc2c1CCCC2 | CCRF-CEM leukemia | class 1 |
| NC(=O)N1N=C(c2cc3ccccc3oc2=O)CC1c1cn(-c2ccccc2)nc1-c1ccc(Cl)cc1 (stereo not given) | CCRF-CEM leukemia | class 1 |
| Oc1ccccc1-c1nnc(SCc2ccc(O)c3ncccc23)o1 | CCRF-CEM leukemia | class 0 |
| CS(=O)c1nccc(-c2c(-c3ccc(F)c(OCc4ccccc4)c3)nc3sccn23)n1 (stereo not given) | CCRF-CEM leukemia | class 0 |
| O=C1c2c(c3c4cc(Br)ccc4[nH]c3c3ccc4ccccc4c23)C(=O)N1CCN1CCNCC1 | CCRF-CEM leukemia | class 1 |
| COc1cc2c3c(n(CCCNCC4CC4)c(=O)c2cc1OC)-c1cc2c(cc1C3=O)OCO2 | CCRF-CEM leukemia | class 1 |
| O=C(NNc1nc2cc(F)c(F)cc2n2cccc12)c1cccnn1 | CCRF-CEM leukemia | class 1 |
| O=c1cc(-c2ccccc2)nc2sc(-c3c[nH]c4ccc(F)cc34)nn12 | CCRF-CEM leukemia | class 0 |
| O=C1/C(=C/c2ccc([N+](=O)[O-])cc2)SC(=Nc2ccccc2)N1Nc1ccccc1 | CCRF-CEM leukemia | class 0 |
| O=C1Nc2cc(OC(F)(F)F)ccc2Oc2ccc(-c3ccnc(N4CC[C@H](O)C4)c3)cc21 | CCRF-CEM leukemia | class 0 |
| COc1cc(/C=C/C(=O)c2ccc(NC(=O)COc3cccc4cccnc34)cc2)cc(OC)c1OC | CCRF-CEM leukemia | class 0 |
| COC(=O)[C@@]1(C)CC[C@]2(C)CC[C@]3(C)C(=CC(=O)[C@@H]4[C@@]5(C)Cc6c(n(CC#CCN7CCN(C)CC7)c7ccccc67)C(C)(C)[C@@H]5CC[C@]43C)[C@@H]2C1 | CCRF-CEM leukemia | class 0 |
| CCCC(=O)NC(c1cccnc1)c1cc(C(C)=O)c2cccnc2c1O (stereo not given) | CCRF-CEM leukemia | class 0 |
| COc1cc2c3c(n(CCCNC4CCCCC4)c(=O)c2cc1OC)-c1cc2c(cc1C3=O)OCO2 | CCRF-CEM leukemia | class 1 |
| CCNCCCn1c2c(c3cc(OC)c(OC)cc3c1=O)C(=O)c1cc(OC)cnc1-2 | CCRF-CEM leukemia | class 1 |
| Cn1c(SC(C(=O)Nc2ccc(F)cc2)c2ccccc2)nc2ccccc2c1=O (stereo not given) | CCRF-CEM leukemia | class 0 |
| O=C(CCCCCCN1CC(=O)N2[C@@H](c3ccc(Cl)c(F)c3)c3[nH]c4ccccc4c3C[C@H]2C1=O)NO | CCRF-CEM leukemia | class 0 |
| CC1COc2c(N3CCN(C)CC3)c(F)cc3c(=O)c(C(=O)N/N=C/c4cc[nH]c4)cn1c23 (stereo not given) | CCRF-CEM leukemia | class 1 |
| Cc1ccc(-c2nnc3sc(C4=Cc5ccccc5OC=C4)nn23)cc1 | CCRF-CEM leukemia | class 0 |
| CCCCCCNC(=O)Oc1ccc(/C(=C(/C)c2ccc(OC)cc2)c2ccc(OCCN3CCCC3)cc2)cc1 | CCRF-CEM leukemia | class 0 |
| COc1ccc2c(c1)oc1c3[nH]c4ccccc4c3c3c(c21)C(=O)N(O)C3=O | CCRF-CEM leukemia | class 1 |
| O=C(NCCCCCCNC(=O)c1c2c(nc3ccccc13)-c1cccnc1SC2)c1c2c(nc3ccccc13)-c1cccnc1SC2 | CCRF-CEM leukemia | class 0 |
| Cc1ccccc1NC1CC(=O)N(c2ccc(Cl)cc2Cl)C1=O (stereo not given) | CCRF-CEM leukemia | class 0 |
| COc1cc2cc(Oc3ccc(NC(=O)Nc4cc(C(F)(F)F)cc(C(F)(F)F)c4)cc3)c(C)nc2cc1OCCN(C)C | CCRF-CEM leukemia | class 0 |
| CC(=O)c1ccc(NC(=O)COc2ccc(C3SCC(=O)N3c3ccc(Br)cc3)cc2)cc1 (stereo not given) | CCRF-CEM leukemia | class 0 |
| C=C(C)[C@@H]1CC[C@]2(C(=O)NCCCN(CCC#N)CCC#N)CC[C@]3(C)[C@H](CC[C@@H]4[C@@]5(C)CCC(=O)C(C)(C)[C@@H]5CC[C@]43C)[C@@H]12 | CCRF-CEM leukemia | class 0 |
| O=C(O)CNS(=O)(=O)c1ccc(Oc2ccc(S(=O)(=O)NCC(=O)O)cc2)cc1 | CCRF-CEM leukemia | class 0 |
| N/C(=N\OC(=O)CSc1nc2ccccc2s1)c1ccc2ccccc2c1 | CCRF-CEM leukemia | class 0 |
